TARGET_DESC: MutL WT (Escherichia coli, UniProt P23367 1-615)
RUN_DESCRIPTION: fluorescence anisotropy; 3 mM ATP (Table 2 gives 0.64 uM); FA: 20 mM HEPES pH 7.5, 150 mM NaCl, 5 mM MgCl2, 0.08% Tween 20, 20% glycerol, 2 mM DTT, 5 nM DNA, 25 C; BLI: 25 mM HEPES pH 7.5, 150 mM NaCl, 5 mM MgCl2, 2 mM
EXPERIMENTAL_SETUP: protein: recombinant; (HisTrap purified); chain copies: 2; label: 5'-FAM on primer S8; 15 bp duplex, 5' overhang 16 nt on template (recessed primer 3' end)
pKd: −log10 of the molar value.
METRIC_NAME: pKd

                                     binder  metric_name  measurement
0  3' resected primer/template junction (dsDNA) DNA 1: AAGTGTCTGTCGTTTTAAGGACGAAGGACTC DNA 2: GAGTCCTTCGTCCTT          pKd         6.19
